# System Name: Ecm22 (UniProt Q05958)
# Sequence: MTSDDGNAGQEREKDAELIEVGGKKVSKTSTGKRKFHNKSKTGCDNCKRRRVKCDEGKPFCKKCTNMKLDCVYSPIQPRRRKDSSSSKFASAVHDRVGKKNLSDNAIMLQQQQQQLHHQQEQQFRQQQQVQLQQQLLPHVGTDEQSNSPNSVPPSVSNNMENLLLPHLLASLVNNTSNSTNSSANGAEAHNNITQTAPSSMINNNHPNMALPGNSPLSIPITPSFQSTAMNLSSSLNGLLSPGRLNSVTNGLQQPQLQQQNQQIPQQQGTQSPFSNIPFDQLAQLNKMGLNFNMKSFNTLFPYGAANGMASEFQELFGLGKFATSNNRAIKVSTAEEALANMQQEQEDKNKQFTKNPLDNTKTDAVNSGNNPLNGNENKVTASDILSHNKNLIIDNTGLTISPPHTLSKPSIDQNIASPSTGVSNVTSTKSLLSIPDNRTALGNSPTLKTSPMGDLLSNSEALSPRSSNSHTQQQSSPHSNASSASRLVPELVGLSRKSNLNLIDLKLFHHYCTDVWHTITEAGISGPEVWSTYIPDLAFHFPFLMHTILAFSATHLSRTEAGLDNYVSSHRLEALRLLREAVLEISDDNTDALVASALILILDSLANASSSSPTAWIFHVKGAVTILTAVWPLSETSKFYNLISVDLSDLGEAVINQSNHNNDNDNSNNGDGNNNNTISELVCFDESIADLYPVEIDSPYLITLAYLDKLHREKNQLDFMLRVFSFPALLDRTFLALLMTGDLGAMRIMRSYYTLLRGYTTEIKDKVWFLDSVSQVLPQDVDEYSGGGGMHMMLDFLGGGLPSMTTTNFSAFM
# Measurement Description: PBM E-score (8-mer binding enrichment) (E-score (-0.5 to 0.5)); higher = stronger / more preferred TF binding
# Run Conditions: protein concentration: 200 nM; construct: GST-full length
In all, about 33,000 sequences were measured (“E-score (-0.5 to 0.5)”: median about -0.041, highest 2% from about 0.37 on). The full list was thinned out, with the highest values kept by preference.
Label 1 when PBM E-score is at or above -0.006; otherwise label 0.

Consider the following illustrative entries.
{"Residues": "CCTTCCTC", "Cat": 0}
{"Residues": "CAGGGCAG", "Cat": 0}
{"Residues": "ACGCTCAA", "Cat": 1}
{"Residues": "TAATCCTA", "Cat": 1}
{"Residues": "ATCCTGCC", "Cat": 0}
{"Residues": "ACGACCGA", "Cat": 1}

input: Record ACGACCAG ; criterion: PBM E-score no lower than -0.006. Met?
output: 1

input: Quick check, PBM E-score >= -0.006? CGTTCCTA
output: 1

input: Does PBM E-score meet or surpass -0.006 for GCGGCTAA ?
output: 0

input: Decide: is the reported value of PBM E-score for AAGTTTTC equal to or greater than -0.006?
output: 1

input: Given the entry AACGATGA , answer whether its PBM E-score meets or surpasses -0.006.
output: 1

input: // inclusive: PBM E-score at least -0.006? input: GACGATGA
output: 0

input: # check: PBM E-score of CACGATGA is greater than or equal to -0.006
output: 1

input: Quick check: does CATGCTCA have PBM E-score greater than or equal to -0.006?
output: 0

input: Can CGCAGAAG be said to have PBM E-score at or above -0.006?
output: 1

input: Given the entry CACGATGC , answer whether its PBM E-score meets or surpasses -0.006.
output: 1

input: Kindly determine if PBM E-score recorded for ACGACCTC is above or exactly -0.006.
output: 1

input: hey, is PBM E-score for this one >= -0.006? GACGATGC
output: 0

input: Hi, just wondering whether CACGATCA shows PBM E-score of -0.006 or higher.
output: 0

From: the supplement of paper PMC3334620
